- assay_system: Muscarinic acetylcholine receptor (Rattus norvegicus) (UniProt P08482+P08483+P08485+P08911+P10980)
- assay_remarks: Displacement of [3H]-QNB from muscarnic receptor in Rattus norvegicus (rat) cerebral cortex at 10 uM after 90 min by scintillation counting analysis
- Assay type: tissue-based
value_kind: inhibition (%)

• CCC1(CC)CC(CN2CCN(C(=O)c3ccccc3)CC2)OC1=O (stereo not given) = 5
• CCC1(CC)CC(CN2CCC(c3ccccc3)CC2)OC1=O (stereo not given) = 68
• CCC1(CC)CC(COC(=O)Nc2ccc(N3CCCCC3)cc2)OC1=O (stereo not given) = 31
• CCC1(CC)CC(CN2CCC(c3nc4ccccc4[nH]3)CC2)OC1=O (stereo not given) = 46
• CCC1(CC)CC(CN2CCN(c3ccc(OC)cc3)CC2)OC1=O (stereo not given) = 26
• CCC1(CC)CC(CN2CCN(c3ccc([N+](=O)[O-])cc3)CC2)OC1=O (stereo not given) = 18
• CCC1(CC)CC(CN2CCN(c3ccccc3O)CC2)OC1=O (stereo not given) = 46
• CCC1(CC)CC(CN2CCN(C(c3ccccc3)c3ccccc3)CC2)OC1=O (stereo not given) = 97
• CCC1(CC)CC(CN2CCN(c3ccccc3C#N)CC2)OC1=O (stereo not given) = 31
• CCC1(CC)CC(CN2CCN(c3ccccc3)CC2)OC1=O (stereo not given) = 16
• CCC1(CC)CC(CN2CCN(c3cccc(OC)c3)CC2)OC1=O (stereo not given) = 9
• CCC1(CC)CC(CN2CCN(c3ccc(O)cc3)CC2)OC1=O (stereo not given) = 7
• CCC1(CC)CC(CN2CCN(c3ccc(C#N)cc3)CC2)OC1=O (stereo not given) = 18
• CCC1(CC)CC(CN2CCN(c3ccccc3OC)CC2)OC1=O (stereo not given) = 32
• CCC1(CC)CC(CN2CCc3ccccc3C2)OC1=O (stereo not given) = 44
